# Test system: Kochia (Kochia scoparia)
# TEST DETAILS: Test A preemergence
# Format: in vivo
# TEST CONTEXT: Bassia scoparia, pre-emergence, 240 h, 125 g ai/ha, preemergence; visual injury rating, 0 to 100 scale where 0 is no effect and 100 is complete control; approximately 10 d; read-out: Kochia plant response rating
Quick list: pest or weed control at 125 g/ha per entry.
Give just the number in %; leave the unit off.

Cc1cccc([C@H]2CN(C)C(=O)[C@@H]2C(=O)Nc2cccc(F)c2C)c1 ... 70
CN1CC[C@H](c2ccc(C(F)(F)F)cc2)[C@@H](C(=O)Nc2ccccc2C(F)(F)F)C1=O ... 0
Cc1ccc([C@H]2CN(C)C(=O)[C@@H]2C(=O)Nc2cccc(C#N)c2F)cc1 ... 80
CSc1ccccc1NC(=O)[C@H]1C(=O)NC[C@@H]1c1cc(C)cc(F)c1 ... 0

[ask] Answer with pest or weed control at 125 g/ha of N#Cc1ccc([C@H]2CNC(=O)[C@@H]2C(=O)Nc2cccc(F)c2F)cc1F measured for Kochia (Kochia scoparia).
[reply] 0

====

Reported pest or weed control at 250 g/ha values follow for various compounds
# System: redroot pigweed (Amaranthus retroflexus)
# TEST DETAILS: Test G Post-Emergence Protocol
# Type: in vivo
# TEST CONTEXT: Amaranthus retroflexus, post-emergence, 312 h, 250 g ai/ha, evaluated after 13 days, 100=total damage to plant, 0=no damage to plant, read-out: Pigweed, Redroot damage rating
// units = %; emit number, no label

Take a look at these entries with their results.
CN1CC(c2cc(C#N)cc(C(F)(F)F)c2)C(C(=O)Nc2cccc(F)c2F)C1=O (stereo not shown) ... 0
CN1C[C@@H](c2ccc(C(F)(F)F)cc2)[C@H](C(=O)Nc2ccc(F)nc2F)C1=O (racemic) ... 80
Cc1c(F)cccc1NC(=O)[C@@H]1C(=O)N(C)C[C@H]1c1ccnc(OCC(F)(F)F)c1 (racemic) ... 40

[ask] // output pest or weed control at 250 g/ha; input CN1C[C@@H](c2ccc(CO)cc2)[C@H](C(=O)Nc2cccc(F)c2F)C1=O (racemic) ; system redroot pigweed (Amaranthus retroflexus)
[reply] 0

====

# System: giant foxtail (Setaria faberii)
# TEST DETAILS: Test A postemergence
# Format: in vivo
# TEST CONTEXT: Setaria faberi, post-emergence, 240 h, 125 g ai/ha, postemergence, visual injury rating after approximately 10 d; read-out: Foxtail, Giant plant response rating (0 to 100 scale, 0 no effect, 100 complete control)
OBSERVABLE: pest or weed control at 125 g/ha
Note: state the figure and append the unit.

Below: 3 compounds and their reported pest or weed control at 125 g/ha.
CN1C[C@H](c2cc(F)c(C(F)(F)F)c(F)c2)[C@@H](C(=O)Nc2ccccc2F)C1=O [Compound 899] ... 90%
CN1C[C@H](c2cc(F)cc(F)c2)[C@@H](C(=O)Nc2ccc(C(F)(F)F)cn2)C1=O [Compound 869] ... 60%
COc1cccc(C2CN(C)C(=O)C2C(=O)Nc2cccc(F)c2F)c1 (stereo not shown) [Compound 886] ... 90%

[ask] Dear colleague, please send me the reported pest or weed control at 125 g/ha for CCc1cc([C@H]2CNC(=O)[C@@H]2C(=O)Nc2ccccc2F)cs1 [Compound 913] when you can.
[reply] 30%

====

# System: ivy-leaved morning glory (Ipomoea hederacea)
# TEST DETAILS: Test G Pre-Emergence Protocol
# Format: in vivo
# TEST CONTEXT: Ipomoea, pre-emergence, 312 h, 250 g ai/ha, evaluated after 13 days, read-out: Morningglory, Ivy-leaved damage rating (100=total damage to plant; 0=no damage to plant)
Measured pest or weed control at 250 g/ha by item
The reply should be a number in %, with the unit left off.

Cc1n[nH]cc1NC(=O)[C@@H]1C(=O)N(C)C[C@H]1c1ccc(C(F)(F)F)cc1 (racemic) ... 0
COc1cc(OC(F)(F)F)cc(C2CN(C)C(=O)C2C(=O)Nc2cccc(F)c2F)c1 (centres unmarked) ... 0
CN1C[C@H](c2cccc(C(F)(F)F)c2)[C@@H](C(=O)Nc2cnccc2[N+](=O)[O-])C1=O (racemic) ... 0

[ask] Identify measured pest or weed control at 250 g/ha obtained with ivy-leaved morning glory (Ipomoea hederacea) for CN1C[C@@H](c2ccc(C(F)(F)F)cc2)[C@H](C(=O)Nc2ncccn2)C1=O (racemic) .
[reply] 0

[ask] Lab note: ivy-leaved morning glory (Ipomoea hederacea) assay, enter pest or weed control at 250 g/ha for CN1C[C@@H](c2ccc(C(F)(F)F)cc2)[C@H](C(=O)Nc2ccsc2)C1=O (racemic) here
[reply] 0

[ask] Provide pest or weed control at 250 g/ha, recorded with ivy-leaved morning glory (Ipomoea hederacea), of CN1C[C@@H](c2ccc(C(F)(F)F)cc2)[C@H](C(=O)Nc2nnc(C(F)(F)F)[nH]2)C1=O (racemic)
[reply] 0

[ask] Under ivy-leaved morning glory (Ipomoea hederacea), report pest or weed control at 250 g/ha for CN1C[C@@H](c2ccc(C(F)(F)F)cc2)[C@H](C(=O)Nc2cccc3c2CCC3)C1=O (racemic)
[reply] 0

[ask] // fetch pest or weed control at 250 g/ha for C=CCc1ccc(Cl)cc1NC(=O)[C@H]1C(=O)N(C)C[C@@H]1c1ccc(C(F)(F)F)cc1 (racemic) ; system: ivy-leaved morning glory (Ipomoea hederacea)
[reply] 0

[ask] Param request: pest or weed control at 250 g/ha | system ivy-leaved morning glory (Ipomoea hederacea) | item CN1C[C@@H](c2ccc(C(F)(F)F)cc2)[C@H](C(=O)Nc2ccc(F)nn2)C1=O (racemic)
[reply] 0

[ask] Please look at CCc1nnc(NC(=O)[C@@H]2C(=O)N(C)C[C@H]2c2ccc(C(F)(F)F)cc2)s1 (racemic) and tell me its recorded pest or weed control at 250 g/ha on ivy-leaved morning glory (Ipomoea hederacea).
[reply] 0

[ask] Enter pest or weed control at 250 g/ha (test system ivy-leaved morning glory (Ipomoea hederacea)) for CN1C[C@@H](c2ccc(C(F)(F)F)cc2)[C@H](C(=O)Nc2ccon2)C1=O (racemic)
[reply] 0

[ask] Report its pest or weed control at 250 g/ha with ivy-leaved morning glory (Ipomoea hederacea) as the test system: COc1cc([C@@H]2CN(C)C(=O)[C@H]2C(=O)Nc2cccc(F)c2F)ccc1Cl (racemic)
[reply] 10

[ask] // fetch pest or weed control at 250 g/ha; item: CN1C[C@@H](c2ccc(C(F)(F)F)cc2)[C@H](C(=O)Nc2ccccc2C#N)C1=O (racemic) ; system: ivy-leaved morning glory (Ipomoea hederacea)
[reply] 10

[ask] Enter recorded pest or weed control at 250 g/ha with ivy-leaved morning glory (Ipomoea hederacea) for CN1C[C@H](c2ccc(C(F)(F)F)c(C(F)(F)F)c2)[C@@H](C(=O)Nc2ccccc2S(C)(=O)=O)C1=O (racemic) here.
[reply] 0

====

# Test system: Kochia (Kochia scoparia)
# TEST DETAILS: Test A preemergence
# Format: in vivo
# TEST CONTEXT: Bassia scoparia, pre-emergence, 240 h, 125 g ai/ha, preemergence; visual injury rating, 0 to 100 scale where 0 is no effect and 100 is complete control; approximately 10 d; read-out: Kochia plant response rating
OBSERVABLE: pest or weed control at 125 g/ha (%)
Respond numerically; units are % and should not be typed.

Please review the entries below; each comes with its answer.
CN1C[C@H](c2csc3c2CCC3)[C@@H](C(=O)Nc2ccccc2F)C1=O ... 0
O=C1NC[C@H](c2cccc(C(F)(F)F)c2)[C@H]1C(=O)Nc1ccccc1-n1cncn1 ... 0
COc1cc(C(F)(F)F)ccc1[C@H]1CNC(=O)[C@@H]1C(=O)Nc1cccc(F)c1F ... 20

# evaluate next
[ask] Consider the compound CN1C[C@H](c2ccc(C(F)(F)F)cc2)[C@@H](C(=O)Nc2ccccc2)C1=O . State its measured pest or weed control at 125 g/ha.
[reply] 80

====

The entries below are paired with their reported Plant response rating, Crabgrass, Large.
# Test system: crabgrass, large (large crabgrass, Digitaria sanguinalis)
# TEST DETAILS: Test C preemergence
# Type: in vivo
# TEST CONTEXT: 250 g ai/ha, scale 0 to 100, 0 no effect, 100 complete control
In your answer, state the number alone without any accompanying words.

Cc1ccc(C2CN(C)C(=O)C2C(=O)Nc2ccccc2F)cc1F (stereo not shown) ... 100

[ask] Give recorded Plant response rating, Crabgrass, Large. CN1CC(c2cccc(OC(F)F)c2)C(C(=O)Nc2ccccc2S(C)(=O)=O)C1=O (stereo not shown)
[reply] 98

[ask] Identify the reported Plant response rating, Crabgrass, Large for the following entry. Cc1ccc(C2CN(C)C(=O)C2C(=O)Nc2ccccc2S(C)(=O)=O)cc1 (stereo not shown)
[reply] 100

[ask] Return Plant response rating, Crabgrass, Large for the following molecule: CN1CC(c2ccc(C(F)(F)F)c(F)c2)C(C(=O)Nc2ccccc2F)C1=O (stereo not shown)
[reply] 100
